Data provenance: patent US20240018237A1

Entries and their EC50 values follow.
- Target system: T1, human ROR1 (full-length, on the cell surface) (human, UniProt Q01973 30-937)
- T1 construct: whole, on cells; the tumour cell lines carry their own ROR1; also called Ba/F3-ROR1 cells; Jeko-1
- T1 sequence (Q01973 30-937): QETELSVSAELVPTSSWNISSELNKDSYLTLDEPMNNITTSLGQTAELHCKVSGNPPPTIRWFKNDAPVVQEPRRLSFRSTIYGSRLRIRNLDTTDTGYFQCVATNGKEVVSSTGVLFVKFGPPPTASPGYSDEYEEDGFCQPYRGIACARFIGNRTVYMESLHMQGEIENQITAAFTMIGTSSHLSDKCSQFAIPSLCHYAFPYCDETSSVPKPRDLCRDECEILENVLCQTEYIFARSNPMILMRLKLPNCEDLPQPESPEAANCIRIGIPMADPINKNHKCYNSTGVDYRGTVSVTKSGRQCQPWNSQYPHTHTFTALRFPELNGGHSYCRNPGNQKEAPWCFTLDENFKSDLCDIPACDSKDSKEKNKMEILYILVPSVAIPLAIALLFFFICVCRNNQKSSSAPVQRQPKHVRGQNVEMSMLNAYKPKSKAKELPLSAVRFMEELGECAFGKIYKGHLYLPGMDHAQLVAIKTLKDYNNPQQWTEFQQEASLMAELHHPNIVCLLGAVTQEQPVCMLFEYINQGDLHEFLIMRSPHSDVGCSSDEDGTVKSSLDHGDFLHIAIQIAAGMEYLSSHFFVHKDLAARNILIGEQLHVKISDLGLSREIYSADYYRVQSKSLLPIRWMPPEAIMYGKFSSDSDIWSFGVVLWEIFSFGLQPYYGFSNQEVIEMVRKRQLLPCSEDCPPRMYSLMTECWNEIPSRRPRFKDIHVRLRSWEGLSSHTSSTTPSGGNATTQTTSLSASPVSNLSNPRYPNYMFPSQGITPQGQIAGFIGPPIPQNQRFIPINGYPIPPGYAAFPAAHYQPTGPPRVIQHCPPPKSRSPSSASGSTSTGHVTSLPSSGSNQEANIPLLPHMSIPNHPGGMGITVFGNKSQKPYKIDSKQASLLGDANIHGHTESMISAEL
- Assay comment: flow cytometry, HT-29 cells
Your answer is read as nM, so omit the unit and give the number.

Example results:
Binder: 38F8-Hu66 (antibody, human IgG1, kappa, V domains shown, humanized, human IgG1 / kappa) VH: QVQLVESGGGLVKPGGSLRLSCAASGFTFSNYAMSWVRQAPEKRLEWVASISSGGPTYYPDSVKGRFTISRDNAKNSLYLQMNSLRAEDTAVYYCARGYRYDVNWYFDVWGAGTMVTVSS VL: DIQMTQSPSSLSASVGDRVTITCQASQDINSYLTWFQQKPGKSPKTLIHRANRLVTGVPSRFSGSGSGTDFTFTISSLQPEDIATYYCLQYDEFPYTFGGGTKVEIKR
EC50 [nM]: 0.44
//
Binder: 3D8-Hu87 (antibody, human IgG1, kappa, V domains shown, humanized, human IgG1 / kappa) VH: EVQLVESGGGLVQPGGSLRLSCAASGFTFSSYAMSWVRQAPEKRLEWVSSISSGGSTYYPDSVKGRFTISRDNSKNTLYLQMNSLRAEDTAVYYCARVNYYGYGDYAMDYWGQGTLVTVSS VL: DIQMTQSPSSLSASVGDRVTITCQASQDISNYLSWFQQKPGKSPKTLIYRANRLVTGVPSRFSGSGSGTDYTFTISSLQPEDIATYYCLQYDEFPYTFGGGTKLEIKR
EC50 [nM]: 0.27
//
Binder: 3D8-Hu27 (antibody, human IgG1, kappa, V domains shown, humanized, human IgG1 / kappa) VH: EVQLVESGGGLVQPGGSLRLSCAASGFTFSSYAMSWVRQAPGKGLEWVASINSGGSTYYPDSVKGRFTISRDNAKNSLYLQMNSLRAEDTAVYYCARVNYYGYGDYAMDYWGQGTLVTVSS VL: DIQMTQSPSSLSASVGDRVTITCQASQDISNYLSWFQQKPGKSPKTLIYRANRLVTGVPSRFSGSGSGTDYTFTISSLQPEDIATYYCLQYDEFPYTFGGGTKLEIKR
EC50 [nM]: 0.27

Quick one: EC50 for 3D8-Hu96 (antibody, human IgG1, kappa, V domains shown, humanized, human IgG1 / kappa) VH: EVQLVESGGGLVQPGGSLRLSCAASGFTFSSYAMSWVRQAPEKRLEWVSSISNGGSTYYPDSVKGRFTISRDNSKNTLYLQMNSLRAEDTAVYYCARVNYYGYGDYAMDYWGQGTLVTVSS VL: DIQMTQSPSSLSASVGDRVTITCQASQDINSYLSWFQQKPGKSPKTLIYRANRLVTGVPSRFSGSGSGTDYTFTISSLQPEDIATYYCLQYDEFPYTFGGGTKLEIKR ?
0.3

// repeat for 19F6-Hu35V3 (antibody, human IgG1, kappa, V domains shown, humanized, human IgG1 / kappa) VH: QVQLQESGPGLVKPSQTLSLTCTVSGYSITSDYAWNWIRQFPGKGLEWIGYISYSGSIRYNPSLKSRVTISRDTSKNQFSLKLSSVTAADTAVYYCARGEITYYFDYWGQGTLVTVSS VL: ETTLTQSPAFMSATPGDKVTISCKASTSIDDDMNWYQQKPGKPPKLIISEGNTLRPGIPPRFSSSGYGTDFTFTINKIESEDAATYYCLQSNDLPLTFGQGTKLEIKR and report
0.17
